- experiment.notes: Plasma protein binding in human at 0.5 mg/ml by HPLC analysis
- Type: ADME, cell-free
- particulars: read-out: PPB (converted)
I'd be grateful if you could share measured fraction unbound at 0.5 mg/ml for these entries.
One number for each entry.

- structure.notation: "CCN(C)S(=O)(=O)Nc1ccc(F)c(C(=O)c2c[nH]c3ncc(-c4cnc(N5CCN(CC(=O)N[C@H](C(=O)N6C[C@H](O)C[C@H]6C(=O)N[C@@H](C)c6ccc(-c7scnc7C)cc6)C(C)(C)C)CC5)nc4)cc23)c1F"
  fraction unbound at 0.5 mg/ml: 0.04

Then this molecule:
Query: Suppose we examine the molecule CCCS(=O)(=O)Nc1ccc(F)c(C(=O)c2c[nH]c3ncc(-c4ccc(CNC(=O)CCCCOCCCCOCCCCOc5cc(-c6scnc6C)ccc5CNC(=O)[C@@H]5C[C@@H](O)CN5C(=O)[C@H](C(C)C)N5Cc6ccccc6C5=O)cc4)cc23)c1F ; what fraction unbound at 0.5 mg/ml value has been reported?
Result: 0.04
